compound: Cn1ncc(C=O)c1-c1ccc([N+](=O)[O-])o1
melting point: 130 °C

compound: CC1(C)OC(=O)Nc2ccc(OCCCCS(=O)c3ccc(Cl)c(Cl)c3)cc21 (stereo not given)
melting point: 138 to 139 °C

compound: Cc1c(Br)ccc(C=NO)c1Cl
melting point: 77 to 78 °C

compound: O=C(O)c1c2c(nc3ccc(F)cc13)-c1ccc(-c3cccc(F)c3)cc1CCC2
melting point: > 300 °C

compound: O=C1c2ccccc2C(=O)N1OCC=Cc1ccc(Br)cc1
melting point: 161 to 162 °C

compound: O=C1Nc2ccc(F)cc2C(CCc2ccccc2)(C(F)(F)F)N1 (racemic)
melting point: 98 °C

compound: CSc1ccc(C(=O)C(C)CC(=O)O)cc1 (stereo not given)
melting point: 69 to 71 °C

compound: COC1(c2ccccc2)OC=C(c2ccc(C(=O)O)cc2)C1=O (stereo not given)
melting point: 212 to 214 °C

compound: CCC(CC)n1cc(Cl)nc(N2CCc3cc(Cl)cc(Cl)c32)c1=O
melting point: 168 to 170 °C

compound: CC(C)OC(=O)c1cc(Cl)c(Cl)c(-c2ccc(Cl)cc2)n1
melting point: 133 to 135 °C

compound: CCCc1c(O)ccc2ccc(OCC(=O)OC)cc12
melting point: 122 to 124 °C

compound: Cc1cc(C)c(F)cc1F
melting point: 30 to 31 °C

compound: c1cncc(-c2cnc3ccccc3c2)c1
melting point: 117 to 119 °C

compound: CN(C)CCCC(=O)N1CCC(c2[nH]nc3c2C(=O)c2c(NC(=O)NN4CCOCC4)cccc2-3)CC1
melting point: 145 to 147 °C

compound: O=C(N[C@H]1CC[C@H](CCN2CCC(c3cccc4c3CCO4)CC2)CC1)c1ccc2ncccc2c1
melting point: 238 °C
